B1: TMEM106C (parent)
chain: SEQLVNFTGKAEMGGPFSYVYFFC

# Variants of: B1
# experiment_notes: protein stability index of a GFP-peptide fusion (GPS, HEK-293T) (PSI 1-6); higher = more stable;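 also: lentivirally expressed fusions sorted by FACS into six bins by GFP to DsRed ratio, PSI derived from sequencing read proportions per bin multiplied by bin number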
# applied_conditions: c terminus: a fixed tail appended
Attribute: protein stability index
measured_property: protein stability index

* P16T | 2.4
* F17Q | 2.77
* T8M | 2.02
* M13A | 2.1
* F17M | 3.54
